system: 786-0 renal; assay: NCI-60 one-dose screen, 48 h (100 = growth as untreated, 0 = no growth, -100 = all killed); conditions: 10 µM unless noted
About 83,000 compounds went through this panel and 20% of them were active in at least one assay; those are over-represented in the sample as a whole.
METRIC NAME: growth (%)
Numbers only, in %.

Check out these entries, answers already filled in.
>>> df
                            compound_smiles  target_entity  unit_of_measurement  quantitative_readout
0    Cc1cc2c(c(C)c1Cl)C(=O)/C(=C/c1ccco1)O2    786-0 renal                    %                   105
1  O=C(Nc1ccc(-c2nc3cc4ccccc4cc3[nH]2)cc1)c1cccc(Br)c1    786-0 renal                    %                  17.6

Ask: Give the measured growth of COc1ccc(-c2c(-c3ccc(OC)c(O)c3)cnc3ncnn23)cc1 .
Reply: 103

---

test system: MDA-MB-231 breast; assay: NCI-60 one-dose screen, 48 h; conditions: 10 µM unless noted
About 83,000 compounds went through this panel and 20% of them were active in at least one assay; those are over-represented in the sample as a whole. Active and inactive are the calls of the source. Rule for the calls: active = growth percent below 10; inactive = the rest.
Choose one outcome from this list and give only that: active, inactive

Worked set:
                                   compound  category_label
0  COc1ccc(Cn2cc(Cn3cc(C=C4C(=O)NC(=O)NC4=O)c4ccccc43)nn2)cc1          active
1  COc1cc(NC(=O)CCSc2nc3ccccc3c(=O)n2CCc2ccccn2)cc(OC)c1OC        inactive
2   NCCOc1ncccc1/C=C1\c2ccccc2-c2ccc(F)cc21        inactive
3           O=C(Nc1ccc(Cl)cc1F)c1cc(I)ccc1O        inactive

Ask: Please share the test call associated with C1=CC2(C=C1)OC21CCC2(C=CC3(C2)OC3C2CCCCC2)CC1 (configuration not stated) .
Reply: inactive

Ask: Here is the next compound: O=C1c2cc(I)ccc2Oc2cc([N+](=O)[O-])ccc2N1c1ccc(Cl)cc1F
Reply: inactive

Ask: Here is the next compound: COc1ccc(-n2c(C(O)c3ccccc3)n[nH]c2=S)cc1 (configuration not stated)
Reply: inactive

---

test system: SF-268 CNS; assay: NCI-60 one-dose screen, 48 h; conditions: 10 µM unless noted
This is part of a sample that, as a whole, favours compounds with a hit. Of some 83,000 tested, about 20% had one in any assay. The source made the active and inactive calls. How the source made its calls: active means growth percent below 10; inactive means the rest.
Choose one outcome from this list and give only that: active, inactive

Worked set:
>>> df
                                   compound  category_label
0             O=C1Nc2ccccc2/C1=C/c1ccc[nH]1        inactive
1  COc1ccccc1CNC(=O)C1c2ccccc2C(=O)N(CC(C)C)C1c1cccs1 (centres undefined)        inactive
2  COc1ccc(C2C3=C(COC3=O)N(CCO)c3cc4c(cc32)CCC4)cc1OC (centres undefined)        inactive
3  COC(=O)C1(C)COP(=O)(Nc2ccc(OC)cc2)OC1 (centres undefined)        inactive
4  CC(C)CCOc1ccc(-c2n[nH]c(C(F)(F)F)c2-c2cncc(C#N)c2)c(O)c1        inactive
5  COc1ccc(N(C)c2nc(N)nc3sc4c(c23)CCCC4)cc1        inactive
6      CCOC(=O)c1ccc(N=Cc2sc(=O)[nH]c2O)cc1        inactive
7  COc1ccc(-c2nc(N3CCN(C(=O)C4CCCCC4)CC3)c3c4c(sc3n2)CCCC4)cc1        inactive

Ask: Please share the test call associated with COc1ccc(Cn2c(Br)c3c(c2Br)-c2nc(NC(=O)c4ccc(OC)cc4)sc2CC3)cc1 .
Reply: inactive

Ask: Here is the next compound: CC(=O)n1cc(-c2c[nH]c3ccccc23)c(-c2ccc(Cl)cc2)n1
Reply: inactive

Ask: Here is the next compound: CNC(=O)c1cc(Oc2ccc(CC(=O)Nc3cc(C(C)(C)C)cn3C)cc2)ccn1
Reply: inactive
